Overview of recorded denaturant midpoint (higher = more stable) for various variants
B1: Ribonuclease, P00648 (parent)
chain: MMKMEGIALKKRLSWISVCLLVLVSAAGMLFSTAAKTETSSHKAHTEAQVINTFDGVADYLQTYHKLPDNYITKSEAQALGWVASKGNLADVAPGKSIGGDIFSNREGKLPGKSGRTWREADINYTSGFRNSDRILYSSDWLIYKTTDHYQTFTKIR

- Variants of: B1
- Conditions used: Bacillus amyloliquefaciens; pH 6.3; 25 °C; Urea; Fluorescence; MES-NaOH 450 mM; reversible: yes; structure 1BNI; whole UniProt chain shown
Readout label: denaturant midpoint (higher = more stable)

mut=N131A measured_value="3.5 M"
mut=R157A measured_value="4.3 M"
mut=L61A measured_value="2.2 M"
mut=I72V measured_value="4 M"
mut=D101A measured_value="3 M"
mut=T73A measured_value="3.5 M"
mut=T53G measured_value="3.9 M"
mut=I98V measured_value="3.6 M"
mut="Y60A Y64A" measured_value="2.43 M"
mut=T152V measured_value="3.4 M"
mut=V57A measured_value="2.8 M"
mut=I156A measured_value="3.5 M"
mut=V57T measured_value="3.3 M"
mut=I72A measured_value="2.7 M"
mut=I143V measured_value="4.1 M"
mut=N88D measured_value="3.2 M"
mut=I98A measured_value="2.1 M"
mut=Y150F measured_value="4.5 M"
mut=D55A measured_value="4.1 M"
mut=N70A measured_value="3.4 M"
